Measured Enzyme Activity Endpoint Assay (purified): Fab′2 of individual entries
# Target entity: pooled human IgG
Answer by giving the amount and then stating its unit.

Query :: Please look up its Enzyme Activity Endpoint Assay (purified): Fab′2: PRT-69 (protein) MANQEIRYSEVTPYHVTSVWTKGVTPPANFTQGEDVFHAPYVANQGWYDITKTFNGKDDLLCGAATAGNMLHWWFDQNKDQIKRYLEEHPEKQKINFNGEQMFDVKEAIDTKNDQLDSKLFEYFKEKAFPYLSTKHLGVFPDHVIDMFINGYRLSLTNHGPTPVKEGSKDPRGGIFDAVFTRGDQSKLLTSRHDFKEKNLKEISDLIKKELTEGKALGLSHTYANVRINHVINLWGADFDSNGNLKAIYVTDSDSNASIGMKKYFVGVNSAGKVAISAKEIKEDNIGAQVLGLFTLSTGQDSWNQTN
Result :: 45 ng/µL

Next protein, Enzyme Activity Endpoint Assay (purified): Fab′2 to be filled in.
Query :: Please look up its Enzyme Activity Endpoint Assay (purified): Fab′2: PRT-76 (protein) MANQEIRYSEVTPYHITSVWTKGVTPPAKFTQGEDVFHAPYVANQGWYDITKTFNGKDDLLCGAATAGNMLHWWFDQNKEEIEAYLKKHPEKQKIMFGDQELLDVRKVINTKDSQTNSALFNYFKDKAFPNLSARRLGVMPDLVLDMFINGYYLNVYKTQTTDVNRTYQTKDRRGGIFDAVFTRGDQSKLLTERHDFKEKTLKEISDLIKQELTEGKALGLSHTYANVRINHVINLWGADFDSNGNLEAIYVTDSDSNASIGMKKYFVGVNSAGKVAISAKEIKEDNIGAQVLGLFTLSTGQDIWNQTN
Result :: 20 ng/µL
